Target system: Cannabinoid receptor 2 (Homo sapiens)
Sequence (P34972 whole entry): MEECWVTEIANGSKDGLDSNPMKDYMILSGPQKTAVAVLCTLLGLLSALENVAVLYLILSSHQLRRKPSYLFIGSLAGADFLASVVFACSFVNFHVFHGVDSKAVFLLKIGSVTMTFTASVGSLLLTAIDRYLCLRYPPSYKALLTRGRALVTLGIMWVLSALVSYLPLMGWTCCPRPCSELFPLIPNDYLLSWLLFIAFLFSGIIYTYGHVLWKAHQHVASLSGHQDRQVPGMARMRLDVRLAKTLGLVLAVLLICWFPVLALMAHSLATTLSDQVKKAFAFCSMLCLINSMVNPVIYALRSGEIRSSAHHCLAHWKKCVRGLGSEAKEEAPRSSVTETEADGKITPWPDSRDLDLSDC
Protocol summary: Inverse agonist activity at human CB2 receptor transfected in CHO cells assessed as increase in forksolin stimulated cAMP production by scintillation counting analysis
Measurement name: log10(EC50) (log10 of the value in nM)
All values: base-10 log of EC50 in nM.

Solved entries:
Q: Item CCCCCn1cc(C(=O)NC23CC4CC(CC(C4)C2)C3)c(=O)n2nc(-c3ccc(C)cc3)nc12 : provide log10(EC50)
Result: 2.81

Q: Item CCCCCn1cc(C(=O)NC23CC4CC(CC(C4)C2)C3)c(=O)n2nc(SC)nc12 : provide log10(EC50)
Result: 2.69

Q: Item CCCCCn1cc(C(=O)NC23CC4CC(CC(C4)C2)C3)c(=O)n2nc(-c3ccc(Cl)cc3)nc12 : provide log10(EC50)
Result: 2.80

Q: Item CCCCCn1cc(C(=O)NC23CC4CC(CC(C4)C2)C3)c(=O)n2nc(-c3ccccc3)nc12 : provide log10(EC50)
Result: 2.21

Q: Item CCCCCn1cc(C(=O)NC23CC4CC(CC(C4)C2)C3)c(=O)n2nc(C)nc12 : provide log10(EC50)
Result: 3.32

Q: Item CCCCCn1cc(C(=O)NC23CC4CC(C)(CC(C)(C4)C2)C3)c(=O)n2ncnc12 : provide log10(EC50)
Result: 1.94

Q: Item CCCCCn1cc(C(=O)NC23CC4CC(CC(C4)C2)C3)c(=O)n2nc(N3CCOCC3)nc12 : provide log10(EC50)
Result: 2.83

Q: Item CCCCCn1cc(C(=O)NC23CC4CC(C)(CC(C)(C4)C2)C3)c(=O)n2nc(-c3ccccc3)nc12 : provide log10(EC50)
Result: 2.69

More entries:
Q: Item CCCCCn1cc(C(=O)NC2CCCCCC2)c(=O)n2nc(-c3ccccc3)nc12 : provide log10(EC50)
Result: 2.93

Q: Item CCCCCn1cc(C(=O)NC23CC4CC(CC(C4)C2)C3)c(=O)n2nc(-c3ccco3)nc12 : provide log10(EC50)
Result: 2.89

Q: Item CCCCCn1cc(C(=O)NC2CCCCC2)c(=O)n2nc(-c3ccc(C)cc3)nc12 : provide log10(EC50)
Result: 2.67

Q: Item CCCCCn1cc(C(=O)NC2CCCCCC2)c(=O)n2nc(-c3ccc(C)cc3)nc12 : provide log10(EC50)
Result: 2.59

Q: Item CCCCCn1cc(C(=O)NC2CCCCC2)c(=O)n2nc(-c3ccccc3)nc12 : provide log10(EC50)
Result: 2.88

Q: Item CCCCCn1cc(C(=O)NC23CC4CC(CC(C4)C2)C3)c(=O)n2nc(-c3ccc(OC)cc3)nc12 : provide log10(EC50)
Result: 2.93

Q: Item CCCCCn1cc(C(=O)NC23CC4CC(CC(C4)C2)C3)c(=O)n2nc(N(C)Cc3ccccc3)nc12 : provide log10(EC50)
Result: 2.66
